PROTOCOL NOTES: Cytotoxic Profiling in HEK 293 Cell Line of Diverse Libraries Using Quantitative High-Throughput Screening; note: nearly all actives have a fitted effect of over 60% in size
ASSAY CONTEXT: HEK 293 viability, ATP luminescence (CellTiter-Glo), 48-72 h; series mostly up to 115 µM
Text: Cell-based phenotypic screening is a commonly used approach to discover biological pathways, novel drug targets, chemical probes and high-quality hit-to-lead molecules. Many hits identified from high-throughput screening campaign are ruled out through a series of follow-up potency, selectivity/specificity, and cytotoxicity assays. […]
Hit rate of the full screen: of about 94,000 compounds, about 6,200 (6.6%) were called active. Not shown: some 31% with an inconclusive outcome. Calls come from the whole dose curve; as a rule, active = well fitted inhibition curve with a large enough effect; inconclusive = small, poorly fitted or top-dose-only effect; inactive = flat fitted curve, though single readings scatter. Many of the other results were omitted from the sample, so actives are more common in it than they were.
Form entry, call: pick from YES (active), NO (inactive)

// known answers, use as guide
Hi, sorry to bother you, what did the test record for CC(C)C[C@@H]1N[C@H](C(=O)NCc2ccc(F)cc2)Cc2cn(C)c3cccc1c23 ?
YES

Hi, sorry to bother you, what did the test record for CC(C)N1CCC(OCCCNC(=O)C2Cn3cccc3C(=O)N2)CC1 (stereo not given) ?
NO

Hi, sorry to bother you, what did the test record for COc1ccc(CNC(=O)[C@@H]2Cc3cn(Cc4ccncc4)c4cccc(c34)[C@H](CC(C)C)N2)cc1 ?
YES

***
Hi, sorry to bother you, what did the test record for COc1ccc(CNC(=O)[C@H]2O[C@H](CCN3CCN(C)CC3)CC[C@@H]2O)cc1 ?
NO

Hi, sorry to bother you, what did the test record for CN1CC(C(=O)NCc2ccccc2)NC1=O (stereo not given) ?
NO

Hi, sorry to bother you, what did the test record for COc1ccc(OC)c(NC(=O)c2cc3n(n2)CC(c2ccc(Cl)cc2)OC3)c1 (stereo not given) ?
NO

----------
PROTOCOL NOTES: Cytotoxic Profiling in HEK 293 Cell Line of Diverse Libraries Using Quantitative High-Throughput Screening; note: nearly all actives have a fitted effect of over 60% in size; note: potency is the fitted concentration of half-maximal effect
ASSAY CONTEXT: HEK 293 viability, ATP luminescence (CellTiter-Glo), 48-72 h; series mostly up to 115 µM
Out of some 94,000 compounds screened, about 6,200 (6.6%) were called active. Inconclusive results (about 31%) are left out. The sample holds actives, similar compounds and a random draw of the others, so the mix is not that of the screen.
QUANTITY KIND: Potency

Need Potency, item NC(=O)[C@H](Cc1cccs1)NC(=O)[C@@H]1C[C@@H](NC(=O)c2cnccn2)CCN1C(=O)COCC(=O)O
inactive

Need Potency, item CNC(=O)[C@@H](Cc1ccccc1)N1CCC[C@H]1C(=O)N1CCC1
inactive

Need Potency, item O=C(C1CCCCC1)N1CC2(Cc3ccccc3NC2=O)C1
inactive

Need Potency, item O=C1CCN(C(=O)C2CCN(C(=O)CCCc3ccccc3)CC2)CCCCCCN1
inactive

Need Potency, item CN(CCCNC1CCC2(CCNCC2)CC1)c1ccccc1
79.4 µM (active)

Need Potency, item O=C(NCCc1ccccc1)C1CCCN1C(=O)c1cccc(-c2ccccn2)c1 (stereo unspecified)
inactive

Need Potency, item COC[C@H]1NC(=O)CC[C@H]1C(=O)NCc1cccc(C(F)(F)F)c1
inactive

Need Potency, item COc1ccccc1CNC(=O)c1nn(CC2CC2)c2c1CNCC2
inactive

Need Potency, item Cc1cc(C(=O)NCC2Cn3cccc3C(=O)N2CC(C)C)n(C)n1 (stereo unspecified)
inactive

Need Potency, item CNC(=O)c1cc(C)nc2onc(C3CCCN3C(=O)c3ccccc3OC)c12 (stereo unspecified)
inactive

***
Need Potency, item CCNC(=O)[C@@H]1C[C@H](n2cc(CN(C)C(=O)OC)nn2)CN1
inactive

Need Potency, item O=C(NCc1cccc(C(F)(F)F)c1)c1nn(CCOc2ccccc2)c2c1CNCC2
28.2 µM (active)

Need Potency, item O=C(Nc1ccccc1)N1CCc2nc(-c3ccccc3)nc(-c3ccc(Cl)cc3)c2C1
inactive

Need Potency, item CCC(C(=O)Nc1ccc2c(c1)CN(Cc1cc(F)cc(F)c1)C(=O)CO2)c1ccccc1 (stereo unspecified)
44.7 µM (active)

Need Potency, item Cc1nc(C)c(C(=O)N2CCC3(CC2)CC(N2CCCC2)CCO3)s1 (stereo unspecified)
inactive

Need Potency, item Cc1cc(=O)n(CC(=O)Nc2cccc(Cl)c2C)c(N2CCc3ccccc3C2)n1
inactive

Need Potency, item O=C(NCCCc1ccccc1)C1CCCN1c1nccc(Nc2ccccc2F)n1 (stereo unspecified)
44.7 µM (active)
